These data points were gathered from patent US20220112292A1.

# System: T1, CLL-1 on U937 cells (human, UniProt Q5QGZ9 1-265)
# T1 construct: whole, on cells; also called CLEC12A; Clec12A
# T1 sequence: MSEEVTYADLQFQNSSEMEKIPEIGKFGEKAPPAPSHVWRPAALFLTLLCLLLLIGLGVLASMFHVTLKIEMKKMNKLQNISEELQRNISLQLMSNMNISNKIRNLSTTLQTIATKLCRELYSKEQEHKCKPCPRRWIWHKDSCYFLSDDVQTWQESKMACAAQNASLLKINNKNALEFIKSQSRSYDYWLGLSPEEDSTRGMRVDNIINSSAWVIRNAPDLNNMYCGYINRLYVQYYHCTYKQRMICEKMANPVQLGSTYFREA
# Assay Name: flow cytometry on U937 cells, VHH in 3-fold dilutions, detected with a-His-PE; percent of cells positive
Property Label: % binding at 1000 ng/ml (%)

The cases that follow already have their % binding at 1000 ng/ml on record.
- Binder: "VHH clone 1G6 (VHH, includes myc and His tags; also called 2G11; 2H2) VHH: QVQLQQSGGGLVQAGGSLRLSCAASGSIFAINEINLMGWYRQAPGKQRELVAACASDGNTYYADSVKGRFTISRDNAEKTVYLQMNNLKPDDTAVYYCDANSRGNYYSGQGTQVTVSS"
  % binding at 1000 ng/ml (%): 88.6
- Binder: "VHH clone 2H3 (VHH, Includes myc and His tags; also called 2H3 VHH-Myc-His; VHH 2H3) VHH: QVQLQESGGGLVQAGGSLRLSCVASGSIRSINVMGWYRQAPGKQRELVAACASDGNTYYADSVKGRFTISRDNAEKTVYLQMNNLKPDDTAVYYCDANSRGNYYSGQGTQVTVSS"
  % binding at 1000 ng/ml (%): 90.3

(1) VHH clone 2F5 (VHH, Includes myc and His tags) VHH: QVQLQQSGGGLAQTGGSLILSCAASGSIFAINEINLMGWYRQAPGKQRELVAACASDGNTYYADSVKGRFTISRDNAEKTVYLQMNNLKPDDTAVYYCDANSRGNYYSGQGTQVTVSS
(2) VHH clone 1H1 (VHH, includes myc and His tags; also called 2F4) VHH: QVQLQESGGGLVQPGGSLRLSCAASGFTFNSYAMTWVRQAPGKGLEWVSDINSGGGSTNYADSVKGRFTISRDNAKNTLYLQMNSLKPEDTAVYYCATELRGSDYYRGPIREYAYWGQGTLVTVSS
[Q] Higher % binding at 1000 ng/ml: 1 or 2 ? Record your answer as the label of the chosen record.
[A] 1
(1: 85.9%, 2: 35.7%)
